MEASURED TARGET: T1, human ROR2 extracellular domain (ROR2 ECD recombinant protein) (human, UniProt Q01974 34-403)
T1 construct: also called human ROR2-ECD; hROR2-ECD
T1 sequence (Q01974 34-403): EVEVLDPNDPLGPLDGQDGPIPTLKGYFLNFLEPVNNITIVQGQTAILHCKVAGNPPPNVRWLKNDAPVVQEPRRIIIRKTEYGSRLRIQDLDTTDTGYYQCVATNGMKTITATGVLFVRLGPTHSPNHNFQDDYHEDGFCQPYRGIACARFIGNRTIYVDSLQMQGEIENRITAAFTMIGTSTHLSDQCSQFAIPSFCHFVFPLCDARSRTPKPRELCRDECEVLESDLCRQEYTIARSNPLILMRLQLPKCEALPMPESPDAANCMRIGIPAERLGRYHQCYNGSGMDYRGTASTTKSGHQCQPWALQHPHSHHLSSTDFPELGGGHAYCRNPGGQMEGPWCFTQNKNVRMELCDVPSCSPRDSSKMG
ASSAY DETAILS: kinetic binding analysis, full length IgG1 on human ROR2-ECD
OBSERVED PROPERTY: Kd

Exercise: State, in one line, measured Kd of ROR2-90 full length human IgG1 antibody (antibody, V domains shown, also called clone #90; antibody #90) VH: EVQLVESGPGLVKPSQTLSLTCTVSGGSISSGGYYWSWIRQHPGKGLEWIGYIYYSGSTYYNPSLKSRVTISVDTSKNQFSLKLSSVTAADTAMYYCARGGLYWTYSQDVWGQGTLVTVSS VL: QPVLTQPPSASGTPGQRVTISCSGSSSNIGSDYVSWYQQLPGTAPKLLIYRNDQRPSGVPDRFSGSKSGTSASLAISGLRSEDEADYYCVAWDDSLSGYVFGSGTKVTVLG
Solution: 0.163 nM

Exercise: State, in one line, measured Kd of ROR2-27 full length human IgG1 antibody (antibody, V domains shown, also called clone #27; clone #027 IgG1) VH: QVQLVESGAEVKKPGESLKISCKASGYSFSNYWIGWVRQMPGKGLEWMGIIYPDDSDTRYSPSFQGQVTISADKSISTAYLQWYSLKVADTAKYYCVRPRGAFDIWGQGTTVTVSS VL: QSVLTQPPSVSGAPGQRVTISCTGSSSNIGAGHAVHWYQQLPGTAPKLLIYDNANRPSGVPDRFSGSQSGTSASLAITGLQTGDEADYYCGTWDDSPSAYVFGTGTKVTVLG
Solution: 0.715 nM

Exercise: State, in one line, measured Kd of ROR2-240 full length human IgG1 antibody (antibody, V domains shown, also called clone #240 IgG1) VH: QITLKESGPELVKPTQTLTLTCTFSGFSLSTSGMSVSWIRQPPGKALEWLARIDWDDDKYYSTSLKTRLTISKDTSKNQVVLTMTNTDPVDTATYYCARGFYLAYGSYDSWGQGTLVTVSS VL: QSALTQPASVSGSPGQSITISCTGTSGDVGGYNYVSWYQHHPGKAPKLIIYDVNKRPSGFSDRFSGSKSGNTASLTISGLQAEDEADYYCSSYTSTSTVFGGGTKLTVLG
Solution: 0.063 nM

Exercise: State, in one line, measured Kd of ROR2-241 full length human IgG1 antibody (antibody, V domains shown) VH: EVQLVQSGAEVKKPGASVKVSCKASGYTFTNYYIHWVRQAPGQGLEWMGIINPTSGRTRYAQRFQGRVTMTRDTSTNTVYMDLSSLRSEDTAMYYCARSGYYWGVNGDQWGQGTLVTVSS VL: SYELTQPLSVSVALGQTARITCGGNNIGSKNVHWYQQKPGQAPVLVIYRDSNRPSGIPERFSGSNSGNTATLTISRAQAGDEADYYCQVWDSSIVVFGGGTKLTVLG
Solution: 0.31 nM
